tested on: SETARIA VIRIDIS, (L) BEAU; assay: Postemergence herbicidal evaluation, SETVI (Foxtail, Green); format: in vivo; set-up: key: 0-9 visual rating scale vs untreated control; conditions: Rate 0.063 kg/ha
Classify by measured SETVI: t if it is equal to or exceeds 1, f if it is smaller.

• Cn1c(=O)[nH]c(=O)n(-c2cc(Oc3c(F)cc(C(F)(F)F)cc3Cl)ccc2[N+](=O)[O-])c1=O [D, reference compound] = t
• COC(=O)Cn1c(=O)n(C)c(=O)n(-c2cc(Oc3ccc(C(F)(F)F)cc3Cl)ccc2Cl)c1=O [Compound 39] = t
• Cn1c(=O)[nH]c(=O)n(-c2cccc(Oc3ccc(C(F)(F)F)cc3Cl)c2)c1=O [E, reference compound] = f
• COC(=O)Cn1c(=O)n(C)c(=O)n(-c2cc(Oc3c(F)cc(C(F)(F)F)cc3Cl)ccc2[N+](=O)[O-])c1=O [Compound 16] = f

# check: SETVI of Cn1c(=O)[nH]c(=O)n(-c2cc(Oc3ccc(C(F)(F)F)cc3Cl)ccc2Cl)c1=O [F, reference compound] is greater than or equal to 1
t

###

tested on: IPOMOEA SPP.; assay: Postemergence herbicidal evaluation, IPOSS (Morningglory spp.); assay type: in vivo; conditions: Rate 0.125 kg/ha
readoutName: IPOSS rating
Write the value as a bare number.

For orientation, consider the following solved cases.
* COC(=O)Cn1c(=O)n(C)c(=O)n(-c2cc(Oc3ccc(C#N)cc3)ccc2[N+](=O)[O-])c1=O | 0.0
* COC(=O)Cn1c(=O)n(C)c(=O)n(-c2cc(Oc3ncc(C(F)(F)F)cc3Cl)ccc2Br)c1=O | 9.0
* COC(=O)Cn1c(=O)n(C)c(=O)n(-c2cc(Oc3cc(Cl)cc(Cl)c3Cl)ccc2[N+](=O)[O-])c1=O | 0.0
* COC(=O)Cn1c(=O)n(C)c(=O)n(-c2cc(Oc3ccc(C(F)(F)F)cc3Cl)ccc2Cl)c1=O | 9.0

Next compound, please.
Entry under review: CC(C)OC(=O)Cn1c(=O)n(C)c(=O)n(-c2cc(Oc3ncc(C(F)(F)F)cc3Cl)ccc2Br)c1=O . Reported IPOSS rating?
9.0

###

Each entry below lists one item and its recorded SETVI, herbicide rating (0-9) value.
test system: SETARIA VIRIDIS, (L) BEAU; assay: Postemergence herbicidal evaluation, SETVI (Foxtail, Green); format: in vivo; settings: Rate 0.125 kg/ha, rated four to five weeks after treatment, averaged
Write the value as a bare number.

For orientation, consider the following solved cases.
* COC(=O)Cn1c(=O)n(C)c(=O)n(-c2cc(Oc3c(F)cc(C(F)(F)F)cc3Cl)ccc2Br)c1=O [Compound 2] | 9.0
* CCOC(=O)Cn1c(=O)n(C)c(=O)n(-c2cc(Oc3c(F)cc(C(F)(F)F)cc3Cl)ccc2C#N)c1=O [Compound 11] | 9.0
* COC(=O)Cn1c(=O)n(C)c(=O)n(-c2cc(Oc3c(F)cc(C(F)(F)F)cc3Cl)ccc2F)c1=O [Compound 4] | 9.0

Entry under review: COC(=O)Cn1c(=O)n(C)c(=O)n(-c2cc(Oc3ccc([N+](=O)[O-])cc3F)ccc2[N+](=O)[O-])c1=O [Compound 24] . Reported SETVI, herbicide rating (0-9)?
0.0
